target: cap-dependent endonuclease (RNP fraction containing PB1•PB2•PA complex) (Influenza A virus); test: biochemical; conditions: RNP from A/WSN/33 virus, capped Cy3/BHQ2 30mer RNA substrate, 60 minutes at room temperature; read-out: CEN IC50
readout kind: IC50 (nM)
Numbers only, in nM.

Solved cases below.
CCC(COC)N1CN(C2c3ccccc3CCc3ccccc32)n2ccc(=O)c(O)c2C1=O (stereo not drawn) : 91
O=C1c2c(O)c(=O)ccn2C(C2c3ccccc3CCc3ccccc32)CN1c1cccnc1 (stereo not drawn) : 81

Next up:
Endpoint output: IC50 of O=C1c2c(O)c(=O)ccn2N(C2c3ccccc3CSc3ccccc32)CN1C1CC(F)(F)C1 (stereo not drawn) . Value? 107

----------
molecular target: cap-dependent endonuclease (RNP fraction containing PB1•PB2•PA complex) (Influenza A virus, UniProt P15659); test: biochemical; conditions: RNP from A/WSN/33 virus, capped Cy3/BHQ2 30mer RNA substrate, 60 minutes at room temperature; read-out: CEN IC50
I'd appreciate it if you could supply IC50 values for the items below.
Give bare numbers, in nM.

// for each compound below, give its IC50
1. O=C1c2c(O)c(=O)ccn2N(C2c3ccccc3CSc3ccccc32)CN1CCO (stereo not shown)
2. COCCN1C[C@H](C(c2ccccc2)c2ccccc2)n2cc(C(=O)O)c(=O)c(O)c2C1=O
3. CN1CN(C2c3ccccc3CSc3c(Cl)cccc32)n2ccc(=O)c(O)c2C1=O (stereo not shown)
4. COCCN1CN(C2c3ccccc3CSc3c(Cl)cccc32)n2ccc(=O)c(O)c2C1=O (stereo not shown)

42
48
14
19

Hi! Can you tell me IC50 for each of these compounds?
1. CC(CN1CCOCC1)N1CN(C2c3ccccc3CCc3ccccc32)n2ccc(=O)c(O)c2C1=O (stereo not shown)
2. Cc1cccc2c1SCc1ccccc1C2N1CN(C(C)C)C(=O)c2c(O)c(=O)ccn21 (stereo not shown)
3. O=C1c2c(O)c(=O)ccn2N(C(c2ccccc2)c2ccccc2)CN1CCNS(=O)(=O)c1ccccc1
4. CN1CN(C2c3ccccc3CSc3ccc(Cl)cc32)n2ccc(=O)c(O)c2C1=O (stereo not shown)
5. CC(C)N1CN(C2c3ccc(Cl)cc3CCc3cc(Cl)ccc32)n2ccc(=O)c(O)c2C1=O

1. 103
2. 66
3. 224
4. 45
5. 82

----------
target: cap-dependent endonuclease (RNP fraction containing PB1•PB2•PA complex) (Influenza A virus, UniProt P15659); test: biochemical; details: RNP from A/WSN/33 virus, capped Cy3/BHQ2 30mer RNA substrate, 60 minutes at room temperature; read-out: CEN IC50
readout kind: IC50 (µM)
Give bare numbers, in µM.

Some compounds with known IC50 results, for comparison:
COCCN1CN(C2c3ccccc3CSc3ccc(F)cc32)n2ccc(=O)c(O)c2C1=O (stereo not drawn) [Example 338] : 0.074
CN1CCC(N2CN(C3c4ccccc4CCc4ccccc43)n3ccc(=O)c(O)c3C2=O)CC1 [Example 253] : 0.235
CC(C)N1C[C@H](C2c3ccccc3CCc3ccccc32)n2ccc(=O)c(O)c2C1=O [Example 576] : 0.063
CC(C)CN1CC(N2CN(C3c4ccccc4CCc4ccccc43)n3ccc(=O)c(O)c3C2=O)C1 [Example 248] : 0.103
COCCC1N(CCO)C(=O)c2c(O)c(=O)ccn2N1C1c2ccccc2CCc2ccccc21 (stereo not drawn) [Example 552] : 0.23
CCOC(=O)CC(C)N1CN(C(c2ccccc2)c2ccccc2)n2ccc(=O)c(O)c2C1=O (stereo not drawn) [Example 230] : 0.282

Batch of 6 compounds: report IC50 for each.
1. O=C1c2c(O)c(=O)ccn2N(C2c3ccccc3CSc3ccccc32)CN1[C@H](CO)c1ccccc1 (stereo partly drawn) [Example 376]
2. COCCN1C[C@H](C(c2ccccc2)c2ccccc2)n2cc(CO)c(=O)c(O)c2C1=O [Example 48]
3. C[C@H](N1CN([C@@H]2c3ccccc3SCc3cccc(F)c32)n2ccc(=O)c(O)c2C1=O)C(F)(F)F [Example 457]
4. CN1CC[C@@H](N2CN(C3c4ccccc4CCc4ccccc43)n3ccc(=O)c(O)c3C2=O)C1 [Example 250]
5. CSCC(=O)NCC1N(C(C)C)C(=O)c2c(O)c(=O)ccn2N1C1c2ccccc2CCc2ccccc21 (stereo not drawn) [Example 546]
6. CN1CCC(N2CN(C(c3ccccc3)c3ccccc3)n3ccc(=O)c(O)c3C2=O)CC1 [Example 225]

1. 0.063
2. 0.087
3. 0.242
4. 0.113
5. 0.202
6. 0.283

Could you tell me IC50 for each of these compounds? They are listed below.
1. CC(CC(=O)Nc1ccccc1)N1CN(C(c2ccccc2)c2ccccc2)n2ccc(=O)c(O)c2C1=O (stereo not drawn) [Example 238]
2. CC(C)N1C(=O)c2c(O)c(=O)ccn2N(C2c3ccccc3CCc3ccccc32)C1CN(C)C (stereo not drawn) [Example 536]

0.101
0.071

For every item below, please supply its IC50.
1. CNC(=O)C(C)N1CN(C(c2ccccc2)c2ccccc2)n2ccc(=O)c(O)c2C1=O (stereo not drawn) [Example 233]
2. CC(C)N1CN(C2c3cc(F)ccc3SCc3c(Cl)cccc32)n2ccc(=O)c(O)c2C1=O (stereo not drawn) [Example 285]
3. O=C1c2c(O)c(=O)ccn2N(C2c3ccccc3CSc3ccccc32)CN1[C@@H]1CCN(CCO)C1 (stereo partly drawn) [Example 290]
4. COCCN1CN(C2c3cc(F)ccc3COc3ccccc32)n2ccc(=O)c(O)c2C1=O (stereo not drawn) [Example 404]
5. O=C1c2c(O)c(=O)ccn2N(C2c3ccccc3CSc3c(Cl)cccc32)CN1C1CC1 (stereo not drawn) [Example 341]
6. CC(C)N1CN(C2c3ccccc3COc3c(Cl)cccc32)n2ccc(=O)c(O)c2C1=O (stereo not drawn) [Example 390]
7. COCCN1CN(C2c3ccccc3COc3c(F)cccc32)n2ccc(=O)c(O)c2C1=O (stereo not drawn) [Example 400]

0.228
0.044
0.067
0.084
0.016
0.095
0.067

----------
Assign pIC50 to each entry below.
molecular target: cap-dependent endonuclease (RNP fraction containing PB1•PB2•PA complex) (Influenza A virus, UniProt P15659); experiment: biochemical; conditions: RNP from A/WSN/33 virus, capped Cy3/BHQ2 30mer RNA substrate, 60 minutes at room temperature; read-out: CEN IC50
Answers are plain numbers, as −log10 of the molar value.

Give measured pIC50 for every item shown.
1. CC(C)N1C(=O)c2c(O)c(=O)ccn2N(C2c3ccccc3CCc3ccccc32)C1CCC(F)(F)F (stereo not shown)
2. CN(C)CCN1CN(C2c3ccccc3CCc3ccccc32)n2ccc(=O)c(O)c2C1=O
3. COCCN1CN(C(c2ccccc2)c2ccccc2)n2c(CC#N)cc(=O)c(O)c2C1=O
4. CC(C)N1CC(N2CN(C3c4ccccc4CCc4ccccc43)n3ccc(=O)c(O)c3C2=O)C1
5. CC(C)N1CN(C(c2ccccc2Cl)c2ccccc2Cl)n2ccc(=O)c(O)c2C1=O
6. CC(C)N1CN(C(c2ccccc2)c2ccccc2)n2c(N)cc(=O)c(O)c2C1=O
7. COCC1N(C(C)C)C(=O)c2c(O)c(=O)ccn2N1C1c2ccccc2CCc2ccccc21 (stereo not shown)

[6.72, 7.06, 6.63, 6.82, 7.43, 7.08, 6.71]

# map each compound to its pIC50
1. O=C(NCCN1CN(C(c2ccccc2)c2ccccc2)n2ccc(=O)c(O)c2C1=O)c1ccccc1
2. CN1CCC(N2CN(C3c4ccccc4CSc4ccccc43)n3ccc(=O)c(O)c3C2=O)CC1 (stereo not shown)
3. N#CCN1CC(C2c3ccccc3CCc3ccccc32)n2ccc(=O)c(O)c2C1=O (stereo not shown)
4. COCCN1CN(C2c3ccccc3CSc3ccccc32)n2ccc(=O)c(O)c2C1=O (stereo not shown)
5. CC(C)N1CN(C2c3ccccc3COc3ccc(Cl)cc32)n2ccc(=O)c(O)c2C1=O (stereo not shown)
6. COc1ccc(N2CN(C3c4ccccc4CSc4ccccc43)n3ccc(=O)c(O)c3C2=O)cc1 (stereo not shown)

6.71
6.52
7.26
7.30
7.47
6.89
